Please go through the items and note down their Total White Blood Cells.
Tested on: Total White Blood Cells
Test: Stability of white blood cells in whole human blood to added lipid
Format: cell-based
Design: unit not given here
Details: 15 mM, control 6.4
Give bare numbers.

> print(dat)
                                   molecule  value
1  CCCCCCCCOC[C@@H](O)CO [1-O-Octyl-sn-glycerol, 1-O-octyl-sn-glycerol]    0.6
2  CCCCCCCC(=O)OCC(O)CO (racemic) [Monocaprylin (8:0), 1-Monocapryloyl-rac-glycerol]    2.4
3  CCCCCCCCCCOC[C@@H](O)CO [1-O-Decyl-sn-glycerol, 1-O-decyl-sn-glycerol]   1.31

Report Total White Blood Cells, nothing else, for this molecule: CCCCCCCCCC(=O)OCC(O)CO (racemic) [Monocaprin (10:0), 1-Monodecanoyl-rac-glycerol]
0.7

Cited source: patent US5434182A
